target: Isocitrate lyase (Candida albicans, UniProt Q9P8Q7)
Sequence (Q9P8Q7 whole entry): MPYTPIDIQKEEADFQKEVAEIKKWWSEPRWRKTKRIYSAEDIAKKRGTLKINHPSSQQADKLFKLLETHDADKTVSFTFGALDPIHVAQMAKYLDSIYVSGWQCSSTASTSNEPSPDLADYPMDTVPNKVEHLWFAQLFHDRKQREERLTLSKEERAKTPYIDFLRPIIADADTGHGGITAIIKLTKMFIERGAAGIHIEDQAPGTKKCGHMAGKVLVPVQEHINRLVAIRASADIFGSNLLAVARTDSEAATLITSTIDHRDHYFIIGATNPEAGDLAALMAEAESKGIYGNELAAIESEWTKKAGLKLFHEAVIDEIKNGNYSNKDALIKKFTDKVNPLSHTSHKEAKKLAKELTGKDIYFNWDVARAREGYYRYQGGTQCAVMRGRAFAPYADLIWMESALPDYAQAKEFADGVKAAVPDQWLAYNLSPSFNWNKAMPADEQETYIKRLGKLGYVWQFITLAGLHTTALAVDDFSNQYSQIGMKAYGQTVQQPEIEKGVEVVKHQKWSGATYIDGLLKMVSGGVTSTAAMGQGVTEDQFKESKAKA
pIC50: −log10 of the molar value.
Below, each of the molecules is paired with its reported pIC50 value.
Property: pIC50

{"Molecule": "COC1C=C(CC/C=C(\\C)CC/C=C(\\C)CCC[C@@H](C)/C=C2\\OC(=O)C(C)=C2O)C(OC)O1 (some centres not stated)", "Value Qualifier": "=", "Experimental Result": 4.04}
{"Molecule": "COC(=O)C(C)(O)[C@](O)(C[C@H](C)CC/C=C(/C)CC/C=C(/C)CCCc1ccoc1)C(=O)OC (some centres not stated)", "Value Qualifier": "=", "Experimental Result": 3.73}
{"Molecule": "CC1=C(O)/C(=C/[C@H](C)CCC/C(C)=C/CC/C(C)=C/CCC2=CC(O)OC2=O)OC1=O (some centres not stated)", "Value Qualifier": "=", "Experimental Result": 4.54}
{"Molecule": "C/C(=C/CC[C@@H](C)CC(=O)O)CC/C=C(/C)CCCc1ccoc1", "Value Qualifier": "=", "Experimental Result": 3.62}
{"Molecule": "CC1=C(O)/C(=C/[C@H](C)CCC/C(C)=C/CCC(C)(O)CCCc2ccoc2)OC1=O (some centres not stated)", "Value Qualifier": "=", "Experimental Result": 4.25}
{"Molecule": "COC(=O)C(C)(O)[C@](O)(C[C@H](C)CCC/C(C)=C/CC/C(C)=C/CCc1ccoc1)C(=O)OC (some centres not stated)", "Value Qualifier": "<", "Experimental Result": 3.38}
{"Molecule": "C/C(=C/CC[C@@H](C)CC(=O)O)CC/C=C(/C)CCCC1=CC(=O)OC1=O", "Value Qualifier": "=", "Experimental Result": 4.26}
